# Tested on: U251 CNS
# Assay procedure: NCI-60 one-dose screen, 48 h
# Test parameters: 10 µM unless noted
Compounds without any hit were thinned out: in the full panel of roughly 83,000, 20% have a hit. Active and inactive are the calls of the source. The calls were made as follows: active = growth percent below 10; inactive = the rest.
Output constraint: value belongs to True = active, False = inactive

> print(dat)
                                   compound  system.under.test  classification
1  COC(=O)c1c2c(c(C)[n+]([O-])c1C)C(=O)C(NCc1ccc(F)c(F)c1)=CC2=O           U251 CNS            True
2                      Cc1cc(Br)c(N)c(Br)c1           U251 CNS           False
3  O=C(CN1C=NC2C(N3CCOCC3)=NC=NC21)c1cccc2ccccc12 (configuration not stated)           U251 CNS           False
4  COc1cc(C2C3=C(COC3=O)N(CCO)c3cc4c(cc32)OCCO4)cc(OC)c1O (configuration not stated)           U251 CNS           False
5  O=C(Nc1ccc(Cl)cc1)N1CCN(c2ccc3nncn3n2)CC1           U251 CNS            True

Which outcome was entered for the compound "Nc1n[nH]c2ccc([C@@H]3Nc4ccc5[nH]ncc5c4[C@H]4[C@H]5CCC(C5)[C@H]43)cc12" in this test?
False

Record: "O=C1/C=C/[C@@H](O)[C@@H]2C[C@@H](O)C[C@H]2/C=C/CCCCO1"
False

Likewise for "NC(CCl)=NCCC[C@H](N)C(=O)O" ?
False

Subsequent entry: O=C(CN1C=NC2C(N3CCOCC3)=NC=NC21)c1ccc(Br)cc1 (configuration not stated)
False

What about this compound? O=S(=O)(Nc1ncccn1)c1ccc(NC2Nc3nc4ccccc4nc3S2)cc1 (configuration not stated)
False

Subsequent entry: "Cc1cc(Nc2ccc(OCc3ccccc3)cc2)nc2cc(O)ccc12"
False

"COc1ccc(C2=C(c3cccc(OC)c3)C(=O)c3ccc(C)nc3C2=O)cc1" , same question.
False

And "CCOC(=O)c1cc2c(n1Cc1cccc(OC)c1)-c1oncc1CCC2" ?
False

What about this compound? "O=C(Nc1ccc(F)cc1F)c1cc(Cl)ccc1O"
True

Now try "O=C(Nc1ccc(F)c(Cl)c1)Nc1ccc(Cl)c(Cl)c1" .
False

Again, but for "CN(C)CCNc1cc(-c2ccccc2)nc2ccccc12"
True

How about this compound: "COc1cc(OC)cc(N2C(=O)N(Cc3ccc(C(C)(C)C)cc3)c3ccccc3S2(=O)=O)c1"
False

What about this compound? "O=c1c2cc(F)cc(Cl)c2sc2c(Cl)nc3ccccc3c12"
False

Now this one: "O=c1oc2ccc(Cl)cc2c(=O)n1-c1cc(C(F)(F)F)cc(C(F)(F)F)c1"
True

Param item: "O=c1c2cccc(F)c2sc2c(N3CCNCC3)nc3ccccc3c12"
False

Check "O=c1oc2ccc(Cl)cc2c(=O)n1-c1ccc(Cl)cc1F" too.
True

Request: "COc1cc2nc(-c3cccc4cccnc34)nc(NC3CCN(Cc4ccccc4)CC3)c2cc1OC"
True

---

# Test system: SF-295 CNS
# Assay procedure: NCI-60 one-dose screen, 48 h (100 = growth as untreated, 0 = no growth, -100 = all killed)
# Test parameters: 10 µM unless noted
Compounds without any hit were thinned out: in the full panel of roughly 83,000, 20% have a hit.
I'd appreciate it if you marked entries Fulfilled when growth is lower than 50% and Not fulfilled when it is not.

Some entries whose results are on file:
> print(dat)
                                   compound  classification
1  Nc1ccc(-n2c(=O)oc3ccc(Cl)cc3c2=O)c(Cl)c1       Fulfilled
2  COc1cc(/C=C2\Oc3cc(OCCCN4CCCC4)ccc3C2=O)cc(OC)c1   Not fulfilled
3  COc1c(B(O)O)cccc1-c1nc2ccc3n[nH]c(F)c3c2c2c1CCCC2   Not fulfilled
4  COC(=O)c1c2c(c(C)[n+]([O-])c1C)C(=O)C=C(NCc1ccccc1)C2=O       Fulfilled
5  COc1cc(C2C3=C(COC3=O)N(CCO)c3cc4c(cc32)CCC4)cc(OC)c1O (centres undefined)       Fulfilled

I'd appreciate it if you could check whether "O=C(/C=C/c1ccc(Cl)cc1)c1ccc(Nc2nc(NCCO)nc(N3CCOCC3)n2)cc1" has growth smaller than 50%.
Not fulfilled

Next compound: CCC1=C[C@]2(C3CC(=O)N(c4ccccc4)C3=O)CC(C(C)(C)C)C[C@@H]2[C@@H]2C(=O)N(c3ccccc3)C(=O)[C@H]12 (some centres undefined)
Not fulfilled

Further, for COc1cc(/C=C/C(=O)N2c3ccccc3CC2C)c(OC)c2c1OCO2 (centres undefined) ?
Not fulfilled

Field entry: "COc1ccc(CCN2CCC(CN(C)Cc3cnn(-c4ccccc4)c3)CC2)cc1"
Fulfilled
